target: KRAS G12D-GTP & cRAF (Homo sapiens (Human), UniProt P01116, G12D); assay: KRAS G12D/cRAF binding experiment (HTRF); conditions: competitive binding
Sequence (P01116-2 other isoform, or with tags, fused parts or gaps G12D): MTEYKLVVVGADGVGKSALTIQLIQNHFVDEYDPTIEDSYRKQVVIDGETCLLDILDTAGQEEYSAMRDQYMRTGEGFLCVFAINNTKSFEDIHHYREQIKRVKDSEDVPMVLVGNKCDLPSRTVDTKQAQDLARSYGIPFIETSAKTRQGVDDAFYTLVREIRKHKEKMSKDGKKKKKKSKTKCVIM
Reported IC50 values for the following molecules.
Field: numeric (nM). Do not append units.

Study these solved cases before continuing.
C#Cc1c(F)ccc2cc(O)cc(-c3nc(C#CC4CCCC4)c4c(N5CC6CCC(C5)N6)nc(OC[C@@]56CCCN5C[C@H](F)C6)nc4c3F)c12 [Compound 28]; 11.1
C#Cc1c(F)ccc2cc(O)cc(-c3nc(C#CCC(C)C)c4c(N5CC6CCC(C5)N6)nc(OC[C@@]56CCCN5C[C@H](F)C6)nc4c3F)c12 [Compound 29]; 14.7

For KRAS G12D-GTP & cRAF (Homo sapiens (Human), UniProt P01116, G12D), give IC50 of the listed molecule: C#Cc1c(F)ccc2cc(O)cc(-c3nc(COC)c4c(N5CC6CCC(C5)N6)nc(OC[C@@]56CCCN5C[C@H](F)C6)nc4c3F)c12 [Compound 12]
9.7

For KRAS G12D-GTP & cRAF (Homo sapiens (Human), UniProt P01116, G12D), give IC50 of the listed molecule: C#Cc1c(F)ccc2cc(O)cc(-c3nc(C#C)c4c(N5CC6CCC(C5)N6)nc(OCCC(F)(F)F)nc4c3F)c12 [Compound 55]
9.8
